- Tested on: NCI-H460 lung
- protocolSummary: NCI tumour cell line growth inhibition, 48 h
Each item that follows carries a reported TGI.
attributeMeasured: TGI

> print(dat)
                                    molecule  attributemeasured     result
 1  O=[N+]([O-])c1ccc2c(c1)Sc1ccccc1N2CCCCCl                TGI   > 100 µM
 2           c1ccc2c(c1)nc1n2sc2nc3ccccc3n21                TGI   > 100 µM
 3  CCOC(=O)N1C/C(=C/c2ccc(F)cc2)C(=O)/C(=C/c2ccc(F)cc2)C1                TGI    4.56 µM
 4       Cn1c(O)c(C2=Nc3ccccc3C2=O)c2ccccc21                TGI   > 100 µM
 5          CSC1=NN(c2ccccc2)C(=O)C1=C(SC)SC                TGI    41.4 µM
 6  CCOC(=O)[C@H]1O[C@@H]1C(=O)N[C@@H](CC(C)C)C(=O)NCCc1ccc(O)cc1                TGI   > 100 µM
 7  Cc1cc2[nH]c(Cl)c(/C=C3\C(=O)Nc4ccccc43)c2cc1O                TGI      15 µM
 8  CSc1ncc2c(n1)-c1ccccc1OC2N1CCCCC1 (centres undefined)                TGI   > 100 µM
 9  C=C1CCC2C(C)(CO)C(O)CCC2(C)C1CC(O)/C(=C/CO)C(=O)O (centres undefined)                TGI   > 100 µM
10  FC(F)(F)c1nnn[n-]1.[Au+].c1ccc([PH+](c2ccccc2)c2ccccc2)cc1                TGI    50.4 µM
11                   CCOC(=O)Nn1c(C)nnc1CC#N                TGI   > 100 µM
12  CC12CCC(C(Br)(Br)C1=O)C2(C)C (centres undefined)                TGI    27.2 µM
13  O=C1CN2C(Cl)(Cl)C2(c2ccccc2)c2cc(Cl)ccc2N1CC1CC1 (centres undefined)                TGI      32 µM
14  Cc1cc(NS(=O)(=O)c2ccc(NC(=O)c3cccn4c(=O)c5ccccc5nc34)cc2)no1                TGI   > 100 µM
15  O=C(/C=C/c1ccc(Cl)cc1)/C=C/c1cc2ccccc2[nH]c1=O                TGI    28.9 µM
16  O=C1C2c3[nH]c4ccccc4c3C3CCCC3C2C(=O)N1c1ccccc1 (centres undefined)                TGI   > 100 µM
17  COc1ccc(/C=C2\C(=O)N(C(=O)c3ccc(NC(C)=O)cc3)N=C2C)cc1                TGI   > 100 µM
18                  Cn1c(=O)[nH]c2nccnc2c1=O                TGI    > 10 µM
19  CN(C)CCCOc1ccc(OCCCN(C)C)c2c1C(=O)c1ccccc1C2=O                TGI    11.6 µM
20  CC12OC1(C)C1C(=O)OCC1C2=O (centres undefined)                TGI   > 100 µM
21   CN1CCN(C(=S)N(C(=O)c2cccs2)C2CCCCC2)CC1                TGI   > 100 µM
22  Cc1ccc([N+](=O)[O-])cc1S(=O)(=O)Nc1ccc(C(=O)/C=C/c2cccs2)cc1                TGI   > 100 µM
23  COP(=O)(OC)/C(=C/c1c[nH]c2ccccc12)C(=O)O                TGI   > 100 µM
24  COc1cc(C(=O)NC(CCN)(c2ccccc2)c2ccccc2)cc(OC)c1OC                TGI  > 31.6 µM

----------
- Tested on: SK-MEL-2 melanoma
- protocolSummary: NCI tumour cell line growth inhibition, 48 h
Categories are assigned from the measured TGI using these intervals: lowest (below 20 µM), middle (20 µM to below 40 µM), highest (40 µM or more)

compound	categoryLabel
CCOP(=O)(O)C(Nc1ccc(N=Nc2ccccc2)cc1)c1ccc(C(Nc2ccc(N=Nc3ccccc3)cc2)P(=O)(O)OCC)cc1 (centres undefined)	middle
O=C1Nc2ccccc2C1=Nc1ccc(S(=O)(=O)Nc2nccs2)cc1	highest
CCOC(=O)N1C/C(=C/c2ccc(F)cc2)C(=O)/C(=C/c2ccc(F)cc2)C1	lowest
COc1cc(OC)cc(-n2c(N)c(C#N)c3ccc([N+](=O)[O-])cc3c2=O)c1	highest
O=C(Nc1cccc(-n2cc(-c3ccncc3)c(-c3ccc(Cl)c(O)c3)n2)c1)Nc1ccc(Cl)c(C(F)(F)F)c1	lowest
[Cl-].[Cl-].[Cl-].[O-]c1cccc2cccnc12.[O-]c1cccc2cccnc12.[O]=[Mo]	lowest
O=C(N/N=C/c1ccccc1O)c1ccccc1O	highest
C/C(=N\O)c1ccc(Nc2nc3ccccc3c3occc23)cc1	highest
C#C[C@]1(O)CC[C@H]2[C@@H]3CCC4=CC(=NCCOC(=O)c5cccc6c(=O)c7ccccc7[nH]c56)CC[C@@H]4[C@H]3CC[C@@]21C	highest
CCc1ccc(CNCC(O)c2ccccc2)cc1 (centres undefined)	middle
COc1cc(NCCCCCN=C(N)N)c2ncccc2c1	lowest
COc1ccc(-c2cc(=O)c3c(OC)cccc3o2)c(OC)c1OC	highest
CC(=O)NCCc1c(-c2[nH]c3ccccc3c2CCNC(C)=O)[nH]c2ccccc12	highest
CCCC1C(CC)C(NC)C(C#N)(C#N)C1(C#N)C#N (centres undefined)	middle
CN1CCN(CCCOc2ccc3nc(Nc4cc(Cl)cc(Cl)c4)ccc3c2)CC1	lowest
ClCc1ccc(-c2ccc(Cn3cnc4nc(Cl)nc(Cl)c43)cc2)cc1	middle
Cc1ccc(C(=O)Nc2ccccc2)cc1N=NN(C)C	highest
CSc1ncc2c(n1)-c1ccccc1OC2N1CCCCC1 (centres undefined)	highest
Cc1cc(S(=O)(=O)n2ccnc2Oc2cccc(Cl)c2)c(SSc2cc(Cl)c(C)cc2S(=O)(=O)n2ccnc2Oc2cccc(Cl)c2)cc1Cl	middle
[N-]=[N+]=Nc1ccccc1Oc1ccccc1	highest
COc1ccccc1/C=C1\Sc2scc(-c3ccc(O)c(O)c3)[n+]2C1=O	highest
C1CSCCCSCCCSCCCSCCCSC1	highest

----------
- Test system: NCI-H522 lung
- protocolSummary: NCI tumour cell line growth inhibition, 48 h
attributeMeasured: TGI

> print(dat)
                            substancesmiles    result
1  CC(=O)[CH-]C(C)=O.CC(=O)[CH-]C(C)=O.CC(=O)[CH-]C(C)=O.[In+3]  > 100 µM
2  O=C1/C(=C/c2cc3c(=O)c4ccccc4sc3s2)NC(=S)N1c1ccccc1  > 100 µM
3              [N-]=[N+]=Nc1ccccc1Oc1ccccc1  > 100 µM

----------
Each item that follows carries a reported TGI.
- Test system: COLO 205 colon
- protocolSummary: NCI tumour cell line growth inhibition, 48 h
attributeMeasured: TGI (µM)

> print(dat)
                                   compound  targetundertest  operator  numericreadout
1  Nc1nc(/C=C\c2ccc([N+](=O)[O-])cc2)nc(N2CCN(c3ccccc3)CC2)n1   COLO 205 colon         =            55.2
2  COc1ccc2[nH]c(-c3ccccc3)c(/C=C(\C#N)S(=O)(=O)c3ccccc3)c2c1   COLO 205 colon         >             100
3  CC1CC(c2ccc([N+](=O)[O-])cc2)=Nc2ccccc2S1 (centres undefined)   COLO 205 colon         =            55.1
4  Cc1ccc([N+](=O)[O-])cc1S(=O)(=O)Nc1ccc(C2=NN(C(=O)c3ccccc3)C(c3ccccc3)C2)cc1 (centres undefined)   COLO 205 colon         =            33.9

----------
- Test system: NCI-H23 lung
- protocolSummary: NCI tumour cell line growth inhibition, 48 h
Each item that follows carries a reported TGI.
attributeMeasured: TGI

compound	attributeMeasured	result
CN(Cc1cnc2c(n1)C(N)=NN(N)N2)c1ccc(C(=O)NC(CCP(=O)(O)O)C(=O)O)cc1 (stereo unspecified)	TGI	> 100 µM
C=CC1(CC)/C(=N\O)C(CC)(CC)C(=O)N1O (stereo unspecified)	TGI	> 100 µM
Cn1c(O)c(C2=Nc3ccccc3C2=O)c2ccccc21	TGI	> 100 µM
COC1CC(OC2C(C)OC(OC3C(C)OC(OC4C(C)OC(O[C@H]5CC[C@@]6(C)C(=CC[C@]7(O)[C@@H]6C[C@@H](OC(=O)/C=C(\C)C(C)C)[C@@]6(C)[C@]7(O)CC[C@@]6(O)C(C)=O)C5)CC4OC)CC3OC)CC2OC)OC(C)C1O (stereo partly specified)	TGI	> 12.5 µM
O=C1C2c3[nH]c4ccccc4c3C3CCCC3C2C(=O)N1c1ccccc1 (stereo unspecified)	TGI	> 100 µM
CC(=O)OC1CC2(C)C(OC(C)=O)CC1C2(C)C (stereo unspecified)	TGI	> 100 µM
CCN(CC)C(=O)C[n+]1c2ccccc2n2cc(N)ccc21	TGI	> 100 µM
CC(=O)O[C@H]1CCC2(C)C(=CCC3C2CCC2(C)/C(=N/OC(=O)c4ccc(N(CCCl)CCCl)cc4)CCC32)C1 (stereo partly specified)	TGI	> 100 µM
COc1ccc(C(=O)c2cc(OC)c3c(c2)OCO3)cc1O	TGI	> 24.8 µM
Cc1cc(N(CCC#N)CCC#N)ccc1/C=C\C(=O)Nc1ccccc1	TGI	> 100 µM
S=C(S)N1CCN(c2cccc(Cl)c2)CC1	TGI	> 100 µM
